- Test system: RXF 393 renal
- test: NCI tumour cell line growth inhibition, 48 h
So I've got a bunch of compounds here, and I need their TGI values.
Answers are plain numbers, in µM.

Check out these entries, answers already filled in.
compound | test.value
Cc1ccc(S(=O)(=O)N2CCC[C@@H]2C(=O)O[C@@H]2CCC3CC=CC32)cc1 (stereo not given in full) | 66.5
COC(=O)c1ccc2nc(-c3cc4ccccc4n3C)n(CCCCOc3cc4c(cc3OC)C(=O)N3CCC[C@H]3C=N4)c2c1 | 2.27
CCn1c(-c2nonc2N)nc2c(C#CC(C)(C)O)ncc(OC3CCNCC3)c21 | 13.3
CC(=O)OCC12CN(C#N)C3C4COC(CC41)C1(C(=O)N(C)c4ccccc41)C32 (stereo not given) | 38.3

I need TGI for every entry listed below, if you could help.
1. O=c1ccc2ccc(CBr)cc2o1
2. N[C@H]1c2c(Br)sc(Br)c2C(=O)[C@H]1O

Data returned:
1. 3.47
2. 16.2

I need TGI for every entry listed below, if you could help.
1. Clc1cc(-c2ccccc2)nc(Nc2nc3ccccc3[nH]2)n1
2. Cn1c(-c2ccc[se]2)ccc1-c1ccc(C=O)[se]1
3. O=C1C=C(Nc2ccccc2C(=O)CC(=O)C(=O)Nc2ccc(Cl)cc2)c2ccccc2C1=O
4. CC(C)=CC1C(C(=O)Oc2ccccc2C(C)C)C1(C)C (stereo not given)
5. CCOC(=O)c1nc2ccc(OC)cc2c2c1Cc1ccccc1-2
6. Cc1ccc(-c2nc3nc(-c4ccc(F)cc4)nc(N4CCNCC4)c3o2)cc1
7. Cc1cc2c(c(C(=O)NCC(=O)N[C@@H](C)C(=O)OCc3ccccc3)c1)Oc1c(cc(C)cc1C(=O)NCC(=O)N[C@@H](C)C(=O)OCc1ccccc1)S2
8. COc1ccc2nc3c([N+](=O)[O-])ccc(NCCN(C)C)c3c(N)c2c1

Data returned:
1. 19.1
2. 7.14
3. 45.9
4. 33.5
5. 71.6
6. 23.2
7. 85.3
8. 3.36

This collection of values is drawn from PubChem BioAssay (NCI).
